Values compiled from ChEMBL document CHEMBL1909046.

- TARGET_SYSTEM: UniProt:P28335
- Sequence (P28335 whole entry): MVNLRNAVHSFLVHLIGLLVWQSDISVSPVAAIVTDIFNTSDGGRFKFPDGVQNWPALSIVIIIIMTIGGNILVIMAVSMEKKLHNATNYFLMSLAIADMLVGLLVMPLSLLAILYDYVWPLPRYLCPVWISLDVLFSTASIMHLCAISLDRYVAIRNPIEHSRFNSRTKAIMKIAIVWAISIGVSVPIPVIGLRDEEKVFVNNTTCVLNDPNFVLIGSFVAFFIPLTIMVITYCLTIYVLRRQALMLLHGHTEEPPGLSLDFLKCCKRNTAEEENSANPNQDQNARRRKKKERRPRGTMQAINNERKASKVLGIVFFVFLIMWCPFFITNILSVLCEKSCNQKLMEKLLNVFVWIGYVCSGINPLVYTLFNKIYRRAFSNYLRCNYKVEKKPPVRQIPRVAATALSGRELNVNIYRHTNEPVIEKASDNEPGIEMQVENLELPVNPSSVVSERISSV
- PROTOCOL: DRUGMATRIX: Serotonin (5-Hydroxytryptamine) 5-HT2C radioligand binding (ligand: [3H] Mesulergine)
- Assay type: cell membranes, CHO-K1, Membrane
- ASSAY_CONDITIONS: cho-k1; Not Active = under 50% inhibition at 10 µM
EXPERIMENTAL_READOUT: IC50

{"COMPOUND": "COc1ccccc1OCC(O)CO (stereo unspecified)", "TARGET_SYSTEM": "UniProt:P28335", "VALUE_MEASURED": "Not Active"}
{"COMPOUND": "CN1C(=O)CN=C(c2ccccc2)c2cc(Cl)ccc21", "TARGET_SYSTEM": "UniProt:P28335", "VALUE_MEASURED": "Not Active"}
{"COMPOUND": "C#C[C@]1(O)CC[C@H]2[C@@H]3CCc4cc(O)ccc4[C@H]3CC[C@@]21C", "TARGET_SYSTEM": "UniProt:P28335", "VALUE_MEASURED": "Not Active"}
{"COMPOUND": "CCOC(=O)C1=C(C)NC(C)=C(C(=O)OC)C1c1cccc(Cl)c1Cl (stereo unspecified)", "TARGET_SYSTEM": "UniProt:P28335", "VALUE_MEASURED": "Not Active"}
{"COMPOUND": "O=C(/C=C/c1ccc(O)c(O)c1)OCCc1ccccc1", "TARGET_SYSTEM": "UniProt:P28335", "VALUE_MEASURED": "Not Active"}
{"COMPOUND": "Cc1cn[nH]c1 [FOMEPIZOLE]", "TARGET_SYSTEM": "UniProt:P28335", "VALUE_MEASURED": "Not Active"}
{"COMPOUND": "CCCCC1C(=O)N(c2ccccc2)N(c2ccccc2)C1=O", "TARGET_SYSTEM": "UniProt:P28335", "VALUE_MEASURED": "Not Active"}
{"COMPOUND": "CCN[C@@H](C)Cc1cccc(C(F)(F)F)c1", "TARGET_SYSTEM": "UniProt:P28335", "VALUE_MEASURED": "Not Active"}
{"COMPOUND": "C=C1/C(=C\\C=C2/CCC[C@]3(C)[C@@H]([C@H](C)CCCC(C)C)CC[C@@H]23)C[C@@H](O)C[C@@H]1O", "TARGET_SYSTEM": "UniProt:P28335", "VALUE_MEASURED": "Not Active"}
{"COMPOUND": "OCCO", "TARGET_SYSTEM": "UniProt:P28335", "VALUE_MEASURED": "Not Active"}
{"COMPOUND": "Oc1ccccc1O", "TARGET_SYSTEM": "UniProt:P28335", "VALUE_MEASURED": "Not Active"}
{"COMPOUND": "CCN(CC)CC#CCOC(=O)C(O)(c1ccccc1)C1CCCCC1 (stereo unspecified)", "TARGET_SYSTEM": "UniProt:P28335", "VALUE_MEASURED": "Not Active"}
{"COMPOUND": "CN[C@@H]1[C@H](O)[C@H](NC)[C@H]2O[C@@]3(O)C(=O)C[C@@H](C)O[C@H]3O[C@@H]2[C@H]1O", "TARGET_SYSTEM": "UniProt:P28335", "VALUE_MEASURED": "Not Active"}
{"COMPOUND": "COc1ccc2cc(CCC(C)=O)ccc2c1", "TARGET_SYSTEM": "UniProt:P28335", "VALUE_MEASURED": "Not Active"}
{"COMPOUND": "CCC(=O)O[C@H]1[C@H](O[C@@H]2[C@@H](C)[C@H](O[C@H]3C[C@@](C)(OC)[C@@H](O)[C@H](C)O3)[C@@H](C)C(=O)O[C@H](CC)[C@@](C)(O)[C@H](O)[C@@H](C)C(=O)[C@H](C)C[C@@]2(C)O)O[C@H](C)C[C@@H]1N(C)C [ERYTHROMYCIN PROPIONATE]", "TARGET_SYSTEM": "UniProt:P28335", "VALUE_MEASURED": "Not Active"}
{"COMPOUND": "COc1ccc(Cc2nccc3cc(OC)c(OC)cc23)cc1OC", "TARGET_SYSTEM": "UniProt:P28335", "VALUE_MEASURED": "Not Active"}
{"COMPOUND": "CC(=O)O[C@]1(C(C)=O)CC[C@H]2[C@@H]3C=C(Cl)C4=CC(=O)[C@@H]5C[C@@H]5[C@]4(C)[C@H]3CC[C@@]21C [CYPROTERONE ACETATE]", "TARGET_SYSTEM": "UniProt:P28335", "VALUE_MEASURED": "Not Active"}
{"COMPOUND": "C[C@@H]1CC[C@H]2[C@@H](C)C(=O)O[C@@H]3O[C@@]4(C)CC[C@@H]1[C@]32OO4", "TARGET_SYSTEM": "UniProt:P28335", "VALUE_MEASURED": "Not Active"}
{"COMPOUND": "CC[C@H]1OC(=O)[C@H](C)[C@@H](O[C@H]2C[C@@](C)(OC)[C@@H](O)[C@H](C)O2)[C@H](C)[C@@H](O[C@@H]2O[C@H](C)C[C@H](N(C)C)[C@H]2O)[C@](C)(OC)C[C@@H](C)C(=O)[C@H](C)[C@@H](O)[C@]1(C)O", "TARGET_SYSTEM": "UniProt:P28335", "VALUE_MEASURED": "Not Active"}
{"COMPOUND": "Cc1cccc(Nc2cc(Cl)nc(SCC(=O)O)n2)c1C", "TARGET_SYSTEM": "UniProt:P28335", "VALUE_MEASURED": "Not Active"}
{"COMPOUND": "Nc1nc(Cl)nc2c1ncn2[C@H]1C[C@H](O)[C@@H](CO)O1", "TARGET_SYSTEM": "UniProt:P28335", "VALUE_MEASURED": "Not Active"}
{"COMPOUND": "Nc1ccc(S(=O)(=O)Nc2nccs2)cc1", "TARGET_SYSTEM": "UniProt:P28335", "VALUE_MEASURED": "Not Active"}
{"COMPOUND": "CC[C@H](C)C(=O)O[C@H]1C[C@H](O)C=C2C=C[C@H](C)[C@H](CC[C@@H](O)C[C@@H](O)CC(=O)O)[C@H]21", "TARGET_SYSTEM": "UniProt:P28335", "VALUE_MEASURED": "Not Active"}
{"COMPOUND": "CC(=O)Nc1nnc(S(N)(=O)=O)s1 [ACETAZOLAMIDE]", "TARGET_SYSTEM": "UniProt:P28335", "VALUE_MEASURED": "Not Active"}
{"COMPOUND": "C[C@]12CCC(=O)C=C1CC[C@@H]1[C@@H]2[C@@H](O)C[C@@]2(C)[C@H]1CC[C@]2(O)C(=O)CO [HYDROCORTISONE]", "TARGET_SYSTEM": "UniProt:P28335", "VALUE_MEASURED": "Not Active"}
{"COMPOUND": "C=C(C)[C@H]1Cc2c(ccc3c2O[C@@H]2COc4cc(OC)c(OC)cc4[C@@H]2C3=O)O1", "TARGET_SYSTEM": "UniProt:P28335", "VALUE_MEASURED": "Not Active"}
{"COMPOUND": "C[C@H](C(=O)O)c1cccc(C(=O)c2ccccc2)c1", "TARGET_SYSTEM": "UniProt:P28335", "VALUE_MEASURED": "Not Active"}
{"COMPOUND": "OCCN1CCN(CCCN2c3ccccc3Sc3ccc(Cl)cc32)CC1", "TARGET_SYSTEM": "UniProt:P28335", "VALUE_MEASURED": "Not Active"}
{"COMPOUND": "[N-]=[N+]=CC(=O)OC[C@H](N)C(=O)O", "TARGET_SYSTEM": "UniProt:P28335", "VALUE_MEASURED": "Not Active"}
{"COMPOUND": "CC[C@H]1OC(=O)[C@H](C)[C@@H](O[C@H]2C[C@@](C)(OC)[C@@H](O)[C@H](C)O2)[C@H](C)[C@@H](O[C@@H]2O[C@H](C)C[C@H](N(C)C)[C@H]2O)[C@](C)(O)C[C@@H](C)CN(C)[C@H](C)[C@@H](O)[C@]1(C)O", "TARGET_SYSTEM": "UniProt:P28335", "VALUE_MEASURED": "Not Active"}
{"COMPOUND": "C[C@H]([C@](O)(Cn1cncn1)c1ccc(F)cc1F)S(C)(=O)=O", "TARGET_SYSTEM": "UniProt:P28335", "VALUE_MEASURED": "Not Active"}
